STUDY_SYSTEM: T1, EcAlaRS (Escherichia coli, UniProt P00957 1-876)
T1 sequence: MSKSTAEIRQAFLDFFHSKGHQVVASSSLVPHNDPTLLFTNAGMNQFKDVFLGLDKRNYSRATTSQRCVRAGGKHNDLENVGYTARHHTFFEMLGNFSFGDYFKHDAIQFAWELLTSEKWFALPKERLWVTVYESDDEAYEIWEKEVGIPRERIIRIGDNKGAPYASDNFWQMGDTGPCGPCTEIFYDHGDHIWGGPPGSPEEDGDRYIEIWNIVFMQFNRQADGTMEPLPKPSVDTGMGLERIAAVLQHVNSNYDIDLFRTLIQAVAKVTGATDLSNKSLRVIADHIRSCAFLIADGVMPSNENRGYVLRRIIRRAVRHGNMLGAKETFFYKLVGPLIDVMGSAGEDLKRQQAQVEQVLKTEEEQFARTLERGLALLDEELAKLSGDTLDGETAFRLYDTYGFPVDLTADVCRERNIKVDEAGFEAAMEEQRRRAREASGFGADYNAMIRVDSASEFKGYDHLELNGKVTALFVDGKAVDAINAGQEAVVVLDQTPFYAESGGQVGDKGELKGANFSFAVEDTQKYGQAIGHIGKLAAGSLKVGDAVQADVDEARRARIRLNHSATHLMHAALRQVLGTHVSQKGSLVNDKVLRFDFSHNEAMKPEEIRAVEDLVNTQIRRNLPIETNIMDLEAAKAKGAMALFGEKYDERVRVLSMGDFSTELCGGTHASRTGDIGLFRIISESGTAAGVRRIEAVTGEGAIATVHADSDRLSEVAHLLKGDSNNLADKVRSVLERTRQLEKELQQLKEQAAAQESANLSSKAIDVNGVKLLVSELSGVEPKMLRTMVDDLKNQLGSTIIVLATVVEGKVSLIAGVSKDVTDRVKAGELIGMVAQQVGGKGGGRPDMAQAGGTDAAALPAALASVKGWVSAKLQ
ASSAY_EXPLANATION: EMSA; 5 mM Mg2+; EMSA: 20 mM HEPES pH 7.5, 20 mM KCl, 5 mM MgCl2, 2 mM DTT, 0.1 µM RNA, 10 min on ice, protein 0.0625-32 µM; 5% native PAGE, 0.5x TBE, 4 °C
TEST_PARAMETERS: protein: recombinant; label: 5'-32P; tRNA cloverleaf
pKd: −log10 of the molar value.

BINDER: EctRNAAla (structured_RNA, none (in vitro transcript)) RNA: GGGGCUAUAGCUCAGCUGGGAGAGCGCCUGCUUUGCAAGCAGGAGGUCUGCGGUUCGAUCCCGCAUAGCUCCACCA
pKd: 6.00
